experimentalTarget: MtBPL (Mycobacterium tuberculosis)
Sequence (I6YFP0 whole entry, looked up): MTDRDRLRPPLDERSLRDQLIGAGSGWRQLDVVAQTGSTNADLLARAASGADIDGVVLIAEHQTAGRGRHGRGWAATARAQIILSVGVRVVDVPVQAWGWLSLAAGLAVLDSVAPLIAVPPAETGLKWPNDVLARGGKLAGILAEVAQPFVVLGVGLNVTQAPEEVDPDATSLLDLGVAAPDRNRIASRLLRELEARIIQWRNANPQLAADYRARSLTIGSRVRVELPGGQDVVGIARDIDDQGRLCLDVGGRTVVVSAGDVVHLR
conditionSet: from K of displacement ITC, 298 K
measure: ΔG (kcal/mol)

- CCN(CC)CC.Nc1ncnc2c1ncn2[C@@H]1O[C@H](CNS(=O)(=O)NC(=O)CCCC[C@@H]2SC[C@@H]3NC(=O)N[C@@H]32)[C@@H](O)[C@H]1N [Compound 47]: -12.6
- CCN(CC)CC.Nc1ncnc2c1ncn2[C@H]1CC[C@@H](CNS(=O)(=O)NC(=O)CCCC[C@@H]2SC[C@@H]3NC(=O)N[C@@H]32)C1 [Compound 36]: -12.6
- CCN(CC)CC.Nc1ncnc2c1ncn2[C@@H]1O[C@H](COS(=O)(=O)NC(=O)CCCC[C@@H]2SC[C@@H]3NC(=O)N[C@@H]32)[C@@H](O)[C@@H]1F [Compound 69]: -13.4
- CCN(CC)CC.[N-]=[N+]=N[C@@H]1[C@H](O)[C@@H](CNS(=O)(=O)NC(=O)CCCC[C@@H]2SC[C@@H]3NC(=O)N[C@@H]32)O[C@H]1n1cnc2c(N)ncnc21 [Compound 46]: -12.3
- CCN(CC)CC.Nc1ncnc2c1ncn2[C@H]1CNC[C@@H](COS(=O)(=O)NC(=O)CCCC[C@@H]2SC[C@@H]3NC(=O)N[C@@H]32)O1 [Compound 82]: -12.9

====

experimentalTarget: MtBPL (Mycobacterium tuberculosis)
pKd: −log10 of the molar value.
measure: pKd

- [N-]=[N+]=N[C@H]1[C@H](O)[C@@H](COS(=O)(=O)NC(=O)CCCC[C@@H]2SC[C@@H]3NC(=O)N[C@@H]32)O[C@H]1n1cnc2c(N)ncnc21: 10.57
